These data points were gathered from patent US10280159B2.

A collection of compounds and their measured pEC50
biological target: human S1PR4 (Homo sapiens); construct: host or cells: CHO-K1; assay: Intracellular Ca2+ release (FLIPR) agonist potency, S1P4; type: cell-based; settings: recombinant CHO-K1 cells expressing human S1PR4, aequorin, Gq/i5; Calcium 5 FLIPR; read-out: S1P4 EC50
Sequence (O95977 whole entry): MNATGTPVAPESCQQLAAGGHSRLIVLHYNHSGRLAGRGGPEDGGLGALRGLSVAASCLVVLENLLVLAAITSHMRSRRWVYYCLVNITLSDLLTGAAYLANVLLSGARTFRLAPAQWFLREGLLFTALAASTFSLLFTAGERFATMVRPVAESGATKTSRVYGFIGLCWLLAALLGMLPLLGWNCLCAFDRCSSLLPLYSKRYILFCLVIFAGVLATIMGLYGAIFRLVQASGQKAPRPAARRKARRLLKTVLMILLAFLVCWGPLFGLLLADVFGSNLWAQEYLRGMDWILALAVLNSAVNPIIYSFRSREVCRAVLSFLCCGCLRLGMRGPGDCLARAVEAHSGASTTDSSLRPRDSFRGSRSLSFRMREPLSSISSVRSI
pEC50: −log10 of the molar value.

These solved cases illustrate the format of a correct answer.
{"compound": "O=C(O)CC1CCN(C2CCc3cc(OCc4c(Cl)cccc4Cl)ccc3C2)C1 (centres unmarked)", "study_system": "human S1PR4 (Homo sapiens)", "pEC50": "> 6.00"}
{"compound": "O=C(O)C1CN(C2COc3cc(OCC4CCC4)ccc3C2)C1 (centres unmarked)", "study_system": "human S1PR4 (Homo sapiens)", "pEC50": "< 6.00"}

Q: Note pEC50 for the compound shown: O=C(O)C1CN(C2COc3cc(OCc4ccc(C(F)(F)F)c(F)c4)ccc3C2)C1 (centres unmarked)
A: < 6.00

Q: Note pEC50 for the compound shown: Cc1ccc(F)c(COc2ccc3c(c2)CCC(OCC(=O)O)C3)c1F (centres unmarked)
A: < 6.00

Q: Note pEC50 for the compound shown: CCc1cccc(Cl)c1COc1ccc2c(c1)OCC(N1CC(C(=O)O)C1)C2 (centres unmarked)
A: > 6.00
